Target sequence: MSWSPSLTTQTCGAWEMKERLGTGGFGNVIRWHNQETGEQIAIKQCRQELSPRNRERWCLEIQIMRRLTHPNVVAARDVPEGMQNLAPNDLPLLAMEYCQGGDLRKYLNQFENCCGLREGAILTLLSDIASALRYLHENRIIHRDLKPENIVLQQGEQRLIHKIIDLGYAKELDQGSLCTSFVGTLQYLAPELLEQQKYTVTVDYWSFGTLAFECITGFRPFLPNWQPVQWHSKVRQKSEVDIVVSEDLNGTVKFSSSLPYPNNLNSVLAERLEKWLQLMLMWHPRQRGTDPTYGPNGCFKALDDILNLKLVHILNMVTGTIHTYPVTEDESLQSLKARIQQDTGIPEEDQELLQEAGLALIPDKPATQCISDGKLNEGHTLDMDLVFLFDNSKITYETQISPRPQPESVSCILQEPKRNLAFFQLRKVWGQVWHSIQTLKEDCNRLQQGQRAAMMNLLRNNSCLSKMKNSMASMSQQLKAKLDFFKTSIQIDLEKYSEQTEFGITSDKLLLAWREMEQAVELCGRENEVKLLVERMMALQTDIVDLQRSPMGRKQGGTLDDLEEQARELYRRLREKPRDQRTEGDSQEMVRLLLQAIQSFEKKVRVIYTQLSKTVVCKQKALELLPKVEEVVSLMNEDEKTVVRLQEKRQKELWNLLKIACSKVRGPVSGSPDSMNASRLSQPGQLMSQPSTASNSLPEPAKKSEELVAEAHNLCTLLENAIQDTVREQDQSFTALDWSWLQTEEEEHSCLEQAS
RECORDED METRIC: IC50

I am curious: what IC50 value has been reported for O=C1c2ccccc2-c2n[nH]c3cccc1c23 ?
> 10 µM

---

- TARGET OR TEST SYSTEM: Cathepsin B (Homo sapiens, UniProt P07858)
pIC50: −log10 of the molar value.
RECORDED METRIC: pIC50

Any idea what its pIC50 is? The molecule is O=C1c2ccccc2-c2n[nH]c3cccc1c23
< 5.00

---

- TARGET OR TEST SYSTEM: Protein kinase C
- TEST NAME: Specificity of SP600125: enzyme IC50, protein kinase C
pIC50: −log10 of the molar value.
RECORDED METRIC: pIC50

For O=C1c2ccccc2-c2n[nH]c3cccc1c23 , what is its reported pIC50?
< 5.00

---

- TARGET OR TEST SYSTEM: Adenylate cyclase
- TEST NAME: Specificity of SP600125: enzyme IC50, adenylate cyclase
RECORDED METRIC: IC50

# lookup: IC50 of O=C1c2ccccc2-c2n[nH]c3cccc1c23 [SP600125, anthra {1,9-cd} pyrazol-6(2H)-one]
> 10 µM

---

- TARGET OR TEST SYSTEM: UniProt:P28482
- Sequence (P28482 whole entry, species assumed): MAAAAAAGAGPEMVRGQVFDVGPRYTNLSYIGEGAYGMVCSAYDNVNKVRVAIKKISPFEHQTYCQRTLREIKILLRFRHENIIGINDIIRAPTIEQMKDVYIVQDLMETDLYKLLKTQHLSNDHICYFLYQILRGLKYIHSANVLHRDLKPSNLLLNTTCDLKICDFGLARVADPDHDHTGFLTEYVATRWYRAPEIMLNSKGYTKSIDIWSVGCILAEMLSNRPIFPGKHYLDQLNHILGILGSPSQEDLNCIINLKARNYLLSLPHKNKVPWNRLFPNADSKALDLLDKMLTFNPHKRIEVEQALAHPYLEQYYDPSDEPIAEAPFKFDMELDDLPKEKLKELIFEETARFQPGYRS
pIC50: −log10 of the molar value.
RECORDED METRIC: pIC50

What is its pIC50 for UniProt:P28482? Entry: O=C1c2ccccc2-c2n[nH]c3cccc1c23 [SP600125, anthra {1,9-cd} pyrazol-6(2H)-one]
< 5.00

---

- TARGET OR TEST SYSTEM: Monoamine oxidase
- TEST NAME: Specificity of SP600125: enzyme IC50, monoamine oxidase
- Assay type: biochemical
RECORDED METRIC: IC50

Item under review: O=C1c2ccccc2-c2n[nH]c3cccc1c23 . Reported IC50?
> 10 µM
